These measurements were taken from ChEMBL document CHEMBL1201862.

test system: MOLT-4; test: NCI tumour cell line growth inhibition, 48 h
Calls of active or inactive are those of the source. No stated cut-off is given here; in the data, active = GI50 up to about 1.1 µM and inactive = higher.
Outcomes you can answer with include only these: 1.0 for active, 0.0 for inactive

Before answering, review these 2 worked examples.
{"columns": ["Compound", "Measured Target", "Category Label"],
 "data": [
  ["O=C(Nc1ccc([N+](=O)[O-])cc1Cl)c1cccc([N+](=O)[O-])c1O", "MOLT-4", 0.0],
  ["O=C1/C(=C/C=C/c2ccccc2)N=C(c2ccccc2)N1C1Nc2cc3c(cc2S1)NC(N1C(=O)/C(=C/C=C/c2ccccc2)N=C1c1ccccc1)S3 (stereo not drawn)", "MOLT-4", 1.0]
]}

IN: Which result was noted for this compound in the test: CC1OC(OC2C(O)COC(OC3C(C)OC(OC4C(OC(=O)[C@]56CCC(C)(C)C[C@@H]5C5=CCC7[C@@]8(C)C[C@H](O)[C@H](OC9OC(CO)C(O)C(O)C9O)[C@@](C)(CO)[C@@H]8CC[C@@]7(C)[C@]5(C)CC6)OCC(O)C4O)C(O)C3O)C2O)C(O)C(O)C1O (stereo partly drawn)
OUT: 0.0
